Details: in methyl acetate, 318.15 K

>  <Smiles record>
O=[N+]([O-])c1cc[nH]n1

>  <solubility (mole fraction)>
0.0282

$$$$

---

Settings: in isopropyl acetate, 293.15 K
Parameter: solubility (mole fraction)

>  <Smiles record>
O=[N+]([O-])c1cc[nH]n1

>  <Measurement>
0.00364

$$$$

---

Details: in water, 293.15 K
Parameter: solubility (mole fraction)

>  <Smiles record>
O=[N+]([O-])c1cc[nH]n1

>  <Parameter>
solubility (mole fraction)

>  <Measurement>
0.00051

$$$$

---

Conditions: in ethyl acetate, 313.15 K

>  <Smiles record>
O=[N+]([O-])c1cc[nH]n1

>  <solubility (mole fraction)>
0.0196

$$$$

---

Details: in water, 303.15 K
Parameter: solubility (mole fraction)

>  <Smiles record>
O=[N+]([O-])c1cc[nH]n1

>  <Measurement>
0.00083

$$$$

---

Conditions: in acetonitrile, 298.15 K

>  <Smiles record>
O=[N+]([O-])c1cc[nH]n1

>  <solubility (mole fraction)>
0.0223

$$$$

---

Details: in ethanol, 293.15 K
Parameter: solubility (mole fraction)

>  <Smiles record>
O=[N+]([O-])c1cc[nH]n1

>  <Measurement>
0.0328

$$$$

---

Settings: in isopropyl acetate, 318.15 K

>  <Smiles record>
O=[N+]([O-])c1cc[nH]n1

>  <solubility (mole fraction)>
0.0102

$$$$

---

Conditions: in n-butyl acetate, 303.15 K

>  <Smiles record>
O=[N+]([O-])c1cc[nH]n1

>  <solubility (mole fraction)>
0.00865

$$$$

---

Details: in n-propanol, 283.15 K
Parameter: solubility (mole fraction)

>  <Smiles record>
O=[N+]([O-])c1cc[nH]n1

>  <Parameter>
solubility (mole fraction)

>  <Measurement>
0.0224

$$$$

---

Settings: in n-propyl acetate, 308.15 K
Parameter: solubility (mole fraction)

>  <Smiles record>
O=[N+]([O-])c1cc[nH]n1

>  <Measurement>
0.0142

$$$$

---

Conditions: in ethyl acetate, 318.15 K

>  <Smiles record>
O=[N+]([O-])c1cc[nH]n1

>  <solubility (mole fraction)>
0.0236

$$$$

---

Conditions: in ethanol, 298.15 K
Parameter: solubility (mole fraction)

>  <Smiles record>
O=[N+]([O-])c1cc[nH]n1

>  <Parameter>
solubility (mole fraction)

>  <Measurement>
0.0364

$$$$

---

Settings: in acetonitrile, 283.15 K

>  <Smiles record>
O=[N+]([O-])c1cc[nH]n1

>  <solubility (mole fraction)>
0.0148

$$$$

---

Conditions: in isopropyl acetate, 323.15 K
Parameter: solubility (mole fraction)

>  <Smiles record>
O=[N+]([O-])c1cc[nH]n1

>  <Measurement>
0.0125

$$$$

---

Details: in toluene, 298.15 K

>  <Smiles record>
O=[N+]([O-])c1cc[nH]n1

>  <solubility (mole fraction)>
0.00286

$$$$

---

Conditions: in methyl acetate, 293.15 K

>  <Smiles record>
O=[N+]([O-])c1cc[nH]n1

>  <solubility (mole fraction)>
0.0125

$$$$

---

Details: in acetone, 298.15 K

>  <Smiles record>
O=[N+]([O-])c1cc[nH]n1

>  <solubility (mole fraction)>
0.0202

$$$$
